- assayed_target: T1, human MSLN-R3 protein (human, UniProt Q13421 487-598)
- T1 construct: also called hMSLN-R3
- T1 sequence (Q13421 495-606, form in doubt): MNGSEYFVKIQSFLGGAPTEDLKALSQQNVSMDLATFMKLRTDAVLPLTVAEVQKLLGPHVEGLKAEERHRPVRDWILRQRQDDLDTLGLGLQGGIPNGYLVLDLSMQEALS
- experimental_details: ELISA on coated antigen, antibody 0.001 nM
experimental_readout: OD450 (OD450)

>>> value_reported("Tab110 (scFv, not shown: small tags and cut ends, also called YP218 VH-(G4S)3-VL-his antibody; positive control) scFv: QQQLEESGGGLVKPEGSLTLTCKASGFDLGFYFYACWVRQAPGKGLEWIACIYTAGSGSTYYASWAKGRFTISKASSTTVTLQMTSLAAADTATYFCARSTANTRSTYYLNLWGPGTLVTVSSGGGGSGGGGSGGGGSDVVMTQTPASVSEPVGGTVTIKCQASQRISSYLSWYQQKPGQRPKLLIFGASTLASGVPSRFKGSGSGTEYTLTISDLECADAATYYCQSYAYFDSNNWHAFGGGTEVVV")
0.04
>>> value_reported("F7.33.24-H4 (scFv, not shown: small tags and cut ends, also called S009-F7.33.24 humanized antibody VH1a + VL1) scFv: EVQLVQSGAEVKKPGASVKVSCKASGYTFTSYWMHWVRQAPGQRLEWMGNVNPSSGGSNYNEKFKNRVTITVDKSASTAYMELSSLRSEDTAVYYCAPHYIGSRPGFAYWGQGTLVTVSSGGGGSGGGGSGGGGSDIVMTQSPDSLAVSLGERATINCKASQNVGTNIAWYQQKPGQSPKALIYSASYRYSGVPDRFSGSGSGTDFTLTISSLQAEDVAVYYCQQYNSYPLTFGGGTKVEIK")
0.04
>>> value_reported("F7.33.24-H3 (scFv, not shown: small tags and cut ends, also called S009-F7.33.24 humanized antibody VH1 + VL3) scFv: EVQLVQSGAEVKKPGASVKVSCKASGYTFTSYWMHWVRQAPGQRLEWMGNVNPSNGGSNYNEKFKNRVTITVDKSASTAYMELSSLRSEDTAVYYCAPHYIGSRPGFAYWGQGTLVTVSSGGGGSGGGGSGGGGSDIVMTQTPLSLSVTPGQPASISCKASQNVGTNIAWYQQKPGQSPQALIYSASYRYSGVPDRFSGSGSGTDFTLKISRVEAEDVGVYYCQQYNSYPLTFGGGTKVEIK")
0.04
